Tested on: U-2932
assay_explanation: growth inhibition by drug plus 177Lu-lilotomab satetraxetan (1 - RLU/untreated control) (fraction); higher = stronger inhibition
condition_context: 1000 nM; time (day): 3; 177Lu-lilotomab satetraxetan 1 ug/ml
Some compounds, each annotated with its measured growth inhibition by drug plus 177Lu-lilotomab satetraxetan.
Simply state the number, no unit and no words.

> print(dat)
                               query.smiles  target.or.system  recorded.value
1  CC(C)c1ccc(Cn2ccc3c4c(N)nc(NC5CC5)nc4ccc32)cc1            U-2932           0.982
2  Nc1nc(Cl)nc2c1ncn2[C@@H]1O[C@H](CO)[C@@H](O)[C@@H]1F            U-2932           0.925
3  O=C(O)C1(C(=O)O)CCC1.[NH2-].[NH2-].[Pt+2]            U-2932          0.0161
4  COC(=O)Nc1ccc(-c2nc(N3CCOCC3)c3cnn(C4CCN(C(=O)OC)CC4)c3n2)cc1            U-2932           0.395

Request - read-out growth inhibition by drug plus 177Lu-lilotomab satetraxetan | tested on U-2932 | compound COc1cc2ncnc(-n3nc(-c4ccccn4)nc3N)c2cc1OC
-0.00115

###

Some compounds, each annotated with its measured growth inhibition by drug alone.
Test system: U-2932
assay_explanation: growth inhibition by drug alone (1 - RLU/untreated control) (fraction); higher = stronger inhibition
condition_context: 10 nM; time (day): 3; 177Lu-lilotomab satetraxetan 0 ug/ml
Structures can show the parent of a compound that is named as a salt.
Simply state the number, no unit and no words.

Example compounds with recorded growth inhibition by drug alone:
compound	growth inhibition by drug alone
CCc1ccc(CCOc2ccc(CC3SC(=O)NC3=O)cc2)nc1 (configuration not stated)	-0.11
C[C@@H]1CN(CC(=O)Nc2ccc3c(c2)Cc2cccc(-c4cc(=O)cc(N5CCOCC5)o4)c2S3)C[C@H](C)O1	0.00343
CC(C)(C)c1cnc(CSc2cnc(NC(=O)C3CCNCC3)s2)o1	-0.112
COc1ccc(/C=C\c2cc(OC)c(OC)c(OC)c2)cc1O	0.967
CC/C(=C(\c1ccccc1)c1ccc(OCCN(C)C)cc1)c1ccccc1 [Tamoxifen Citrate (Nolvadex)]	0.0699

What value of growth inhibition by drug alone has been recorded for this entry: C[C@]12CC[C@@H]3c4ccc(O)cc4C[C@@H](CCCCCCCCC[S+]([O-])CCCC(F)(F)C(F)(F)F)[C@H]3[C@@H]1CC[C@@H]2O (some centres not stated)
0.0173

What value of growth inhibition by drug alone has been recorded for this entry: CC(C)n1c(/C=C/C(O)CC(O)CC(=O)O)c(-c2ccc(F)cc2)c2ccccc21 (configuration not stated) [Fluvastatin sodium (Lescol)]
0.0449

What value of growth inhibition by drug alone has been recorded for this entry: Nc1nc(Cl)nc2c1ncn2[C@H]1C[C@H](O)[C@@H](CO)O1
-0.0123

What value of growth inhibition by drug alone has been recorded for this entry: CCc1cc(-c2n[nH]c(C)c2-c2ccc3c(c2)OCCO3)c(O)cc1O
0.113

What value of growth inhibition by drug alone has been recorded for this entry: CNC(=O)c1cc(Oc2ccc(NC(=O)Nc3cc(C(C)(C)C)nn3-c3ccc4ncccc4c3)c(F)c2)ccn1 [DCC-2036 (Rebastinib)]
0.0874

What value of growth inhibition by drug alone has been recorded for this entry: O=C(O)Cc1cccc(OCCCN(Cc2cccc(C(F)(F)F)c2Cl)CC(c2ccccc2)c2ccccc2)c1
0.116

###

Test system: RIVA
assay_explanation: growth inhibition by drug alone (1 - RLU/untreated control) (fraction); higher = stronger inhibition
condition_context: 10 nM; time (day): 4; 177Lu-lilotomab satetraxetan 0 ug/ml
endpoint: growth inhibition by drug alone

Example molecules with recorded growth inhibition by drug alone:
molecule	target_or_system	growth inhibition by drug alone
O=c1[nH]cc(F)c(=O)[nH]1	RIVA	-0.144
COc1c(C)cnc(Cn2cnc3c(Cl)nc(N)nc32)c1C	RIVA	0.0266
CC[C@H]1OC(=O)[C@H](C)[C@@H](O[C@H]2C[C@@](C)(OC)[C@@H](O)[C@H](C)O2)[C@H](C)[C@@H](O[C@@H]2O[C@H](C)C[C@H](N(C)C)[C@H]2O)[C@](C)(O)C[C@@H](C)CN(C)[C@H](C)[C@@H](O)[C@]1(C)O [Azithromycin (Zithromax)]	RIVA	0.206

What value of growth inhibition by drug alone has been recorded for this entry: CC1(COc2ccc3c(c2)ncn3-c2ccc3cccc(N4CCC(N)CC4)c3n2)COC1
-0.0103

###

System: RIVA
assay_explanation: growth inhibition by drug plus 177Lu-lilotomab satetraxetan (1 - RLU/untreated control) (fraction); higher = stronger inhibition
condition_context: 10 nM; time (day): 4; 177Lu-lilotomab satetraxetan 0.5 ug/ml
We use 0.5 as the dividing line for growth inhibition by drug plus 177Lu-lilotomab satetraxetan: on or above the line is rule met, below is rule not met.

Solved cases (4 shown):
> print(dat)
                               query.smiles         label
1  O=c1[nH]nc(Sc2ncc([N+](=O)[O-])s2)n1-c1ccc2c(c1)OCCO2      rule met
2  COc1cc2c(NC3CCN(C)CC3)nc(N3CCCN(C)CC3)nc2cc1OCCCN(C)C  rule not met
3  Cn1cc(-c2ccc3nnc(C(F)(F)c4ccc5ncccc5c4)n3n2)cn1  rule not met
4  Nc1[nH]nc2nnc(-c3c(-c4ccccc4)nn4ccccc34)cc12      rule met

Record C=CC(=O)N1CCC[C@@H](n2nc(-c3ccc(Oc4ccccc4)cc3)c3c(N)ncnc32)C1 ; criterion: growth inhibition by drug plus 177Lu-lilotomab satetraxetan no lower than 0.5. Met?
rule met

###

System: RIVA
assay_explanation: growth inhibition by drug alone (1 - RLU/untreated control) (fraction); higher = stronger inhibition
condition_context: 10 nM; time (day): 3; 177Lu-lilotomab satetraxetan 0 ug/ml
Structures can show the parent of a compound that is named as a salt.
We use 0.06 as the dividing line for growth inhibition by drug alone: on or above the line is Condition met, below is Condition not met.

Solved cases (5 shown):
compound	label
CN(C)CCOc1ccc(-c2nc(-c3ccncc3)c(-c3ccc4c(c3)CC/C4=N\O)[nH]2)cc1	Condition not met
O=C(CCCCCCC(=O)Nc1cccnc1)NO [Pyroxamide]	Condition not met
Cc1c(CCOc2ccc(C(=O)O)cc2)c2cc(Cl)ccc2n1C(c1ccccc1)c1ccccc1	Condition not met
COc1cccc2c1C(=O)c1c(O)c3c(c(O)c1C2=O)C[C@@](O)(C(C)=O)C[C@@H]3O[C@H]1C[C@H](N)[C@H](O)[C@H](C)O1 [Daunorubicin HCl (Daunomycin HCl)]	Condition met
CC(C)c1ccc(Cn2ccc3c4c(N)nc(NC5CC5)nc4ccc32)cc1	Condition met

Record Cc1ccc(C(=O)Nc2ccc(CN3CCN(C)CC3)c(C(F)(F)F)c2)cc1C#Cc1cnc2cccnn12 ; criterion: growth inhibition by drug alone no lower than 0.06. Met?
Condition not met

Record CC(C)CC(=O)Nc1n[nH]c2c1CN(C(=O)C1CCN(C)CC1)C2(C)C ; criterion: growth inhibition by drug alone no lower than 0.06. Met?
Condition met

###

Test system: U-2932
assay_explanation: growth inhibition by drug alone (1 - RLU/untreated control) (fraction); higher = stronger inhibition
condition_context: 1000 nM; time (day): 3; 177Lu-lilotomab satetraxetan 0 ug/ml
Some compounds, each annotated with its measured growth inhibition by drug alone.
Simply state the number, no unit and no words.

Example compounds with recorded growth inhibition by drug alone:
> print(dat)
                                   compound  recorded.value
1  Cc1cccc(-c2[nH]c(C(C)(C)C)nc2-c2ccc3nccnc3c2)n1          0.0282
2                          CN(C)CCCCSC(=N)N         -0.0315
3  CC1=C(/C=C/C(C)=C/C=C/C(C)=C/C(=O)Nc2ccc(O)cc2)C(C)(C)CCC1 [Fenretinide]           0.757
4     COc1ccc(CCN2CCN(CCCc3ccccc3)CC2)cc1OC          -0.032
5  COc1ccc2c3n(c(=NC(=O)c4cccnc4)nc2c1OC)CCN3           0.165

Lab note: next compound to report on.
What value of growth inhibition by drug alone has been recorded for this entry: Nc1nc(Nc2ccc(S(N)(=O)=O)cc2)nn1C(=O)c1c(F)cccc1F
0.297

###

System: RIVA
assay_explanation: growth inhibition by drug plus 177Lu-lilotomab satetraxetan (1 - RLU/untreated control) (fraction); higher = stronger inhibition
condition_context: 100 nM; time (day): 6; 177Lu-lilotomab satetraxetan 0.5 ug/ml
We use 0.5 as the dividing line for growth inhibition by drug plus 177Lu-lilotomab satetraxetan: on or above the line is Fulfilled, below is Not fulfilled.

Solved cases (5 shown):
> print(dat)
                               query.smiles          label
1  Cc1oc(S(=O)(=O)N2CCCCC2)cc1NC(=O)Nc1ccccc1      Fulfilled
2  COC(=O)Nc1ccc(-c2nc(N3CCOCC3)c3cnn(C4CCN(C(=O)OC)CC4)c3n2)cc1      Fulfilled
3  Cc1ccc(NC(=O)c2ccc(CN3CCN(C)CC3)cc2)cc1Nc1nccc(-c2cccnc2)n1  Not fulfilled
4  Cc1nn(-c2ccccc2)c(C)c1C=NN1CCN(Cc2ccccc2)CC1  Not fulfilled
5  Cc1ccc(F)c(NC(=O)Nc2ccc(-c3cccc4[nH]nc(N)c34)cc2)c1      Fulfilled

Record N#Cc1ccc(NC(=O)Nc2ccccc2Br)c2n[nH]nc12 ; criterion: growth inhibition by drug plus 177Lu-lilotomab satetraxetan no lower than 0.5. Met?
Fulfilled

Record Nc1ncn([C@@H]2O[C@H](CO)[C@@H](O)[C@H]2O)c(=O)n1 ; criterion: growth inhibition by drug plus 177Lu-lilotomab satetraxetan no lower than 0.5. Met?
Not fulfilled

Record CCC[C@H](NC(=O)/C(C#N)=C/c1cccc(Br)n1)c1ccccc1 ; criterion: growth inhibition by drug plus 177Lu-lilotomab satetraxetan no lower than 0.5. Met?
Not fulfilled
